# Species on record: Rattus norvegicus
# assay_text: DrugMatrix - Regimen: Daily Repeat
# Assay type: toxicity, organism-based, Sprague-Dawley
# Set-up: regimen Daily Repeat, gender Male, age 6-8 weeks
# condition_set: in vivo, po, 0 mg/kg, 120 h, tissue Plasma, route oral GAVAGE, dose level Control, time 5 day, […]
Reported SODIUM values follow for various compounds
Supply the numeric figure in MEQ/L, leaving out any unit text.

Reference set (3 entries):
| compound | SODIUM / MEQ/L |
| --- | --- |
| CO[C@H]1/C=C/O[C@@]2(C)Oc3c(C)c(O)c4c(O)c(c(/C=N/N5CCN(C6CCCC6)CC5)c(O)c4c3C2=O)NC(=O)/C(C)=C\C=C\[C@H](C)[C@H](O)[C@@H](C)[C@@H](O)[C@@H](C)[C@H](OC(C)=O)[C@@H]1C | 142.63 |
| COc1cc(N)c(Cl)cc1C(=O)NC1CCN(CCCOc2ccc(F)cc2)CC1OC (centres undefined) [CISAPRIDE] | 143.87 |
| CC(C)(C)NC(=O)[C@H]1CC[C@H]2[C@@H]3CC[C@H]4NC(=O)C=C[C@]4(C)[C@H]3CC[C@]12C [FINASTERIDE] | 145.3 |

// field: SODIUM; key: Clc1ccc(COC(Cn2ccnc2)c2ccc(Cl)cc2Cl)cc1 (centres undefined) ; value = 143.17

====

# Species on record: Rattus norvegicus
# assay_text: DrugMatrix - Regimen: Daily Repeat
# Format: toxicity, organism-based, Sprague-Dawley
# Parameters: regimen Daily Repeat, gender Male, age 6-8 weeks
# condition_set: in vivo, po, 2000 mg/kg, 120 h, tissue Blood, route oral GAVAGE, dose level High, time 5 day, vehicle .5 % CMC
Reported HEMOGLOBIN values follow for various compounds
Supply the numeric figure in G/DL, leaving out any unit text.

Reference set (3 entries):
| compound | unit_text | HEMOGLOBIN |
| --- | --- | --- |
| COc1cc2nc(N3CCN(C(=O)c4ccco4)CC3)nc(N)c2cc1OC | G/DL | 13.3 |
| NC1CCN(c2nc3c(cc2F)c(=O)c(C(=O)O)cn3-c2ccc(F)cc2F)C1 (stereo unspecified) | G/DL | 14.4 |
| O=C1Nc2ccc(Cl)cc2C(c2ccccc2Cl)=NC1O (stereo unspecified) | G/DL | 14.95 |

// field: HEMOGLOBIN; key: CC1(C)S[C@@H]2[C@H](NC(=O)[C@H](N)c3ccccc3)C(=O)N2[C@H]1C(=O)O ; value = 13.37

// field: HEMOGLOBIN; key: CN/C(=N/CCSCc1nc[nH]c1C)NC#N ; value = 14

// field: HEMOGLOBIN; key: CN(C/C=C/C#CC(C)(C)C)Cc1cccc2ccccc12 ; value = 13.7

====

# Species on record: Rattus norvegicus
# assay_text: DrugMatrix - Regimen: Daily Repeat
# Type: toxicity, organism-based, Sprague-Dawley
# Parameters: regimen Daily Repeat, gender Male, age 6-8 weeks
# condition_set: in vivo, po, 50 mg/kg, 72 h, tissue Blood, route oral GAVAGE, dose level Low, time 3 day, vehicle .5 % CMC
readout_label: PLATELET COUNT

| compound | PLATELET COUNT |
| --- | --- |
| CN(C)[C@@H]1C(O)=C(C(N)=O)C(=O)[C@@]2(O)C(O)=C3C(=O)c4c(O)ccc(Cl)c4[C@@](C)(O)[C@H]3C[C@@H]12 | 1083.33 x10E3/uL |
| CCN1CCC[C@H]1CNC(=O)c1cc(S(N)(=O)=O)ccc1OC [LEVOSULPIRIDE] | 1162.67 x10E3/uL |
| Cc1cccc(C)c1OCC(C)N (centres undefined) | 1579.67 x10E3/uL |

// field: PLATELET COUNT; key: NC1CCN(c2nc3c(cc2F)c(=O)c(C(=O)O)cn3-c2ccc(F)cc2F)C1 (centres undefined) ; value = 1074.33 x10E3/uL

====

# Species: Rattus norvegicus
# assay_text: DrugMatrix - Regimen: Daily Repeat
# Format: toxicity, organism-based, Sprague-Dawley
# Parameters: regimen Daily Repeat, gender Male, age 6-8 weeks
# condition_set: in vivo, po, 0 mg/kg, 72 h, tissue Blood, route oral GAVAGE, dose level Control, time 3 day, vehicle .5 % CMC
Reported HEMATOCRIT values follow for various compounds
Supply the numeric figure in %, leaving out any unit text.

// field: HEMATOCRIT; key: CC(C(=O)O)c1ccc2oc(-c3ccc(Cl)cc3)nc2c1 (stereo not given) ; value = 42

====

# Species: Rattus norvegicus
# assay_text: DrugMatrix - Regimen: Daily Repeat
# Assay type: toxicity, organism-based, Sprague-Dawley
# Set-up: regimen Daily Repeat, gender Male, age 6-8 weeks
# condition_set: in vivo, sc, 0 mg/kg, 120 h, tissue Blood, route subcutaneous, dose level Control, time 5 day, […]
readout_label: EOSINOPHIL (%)
Supply the numeric figure in %, leaving out any unit text.

// field: EOSINOPHIL; key: O=C(Nc1ccc(Br)cc1)c1cc(Br)cc(Br)c1O [TRIBROMSALAN] ; value = 1.33

// field: EOSINOPHIL; key: CC(C)(C)CC(C)(C)c1ccc(OCCOCC[N+](C)(C)Cc2ccccc2)cc1.[Cl-] [BENZETHONIUM CHLORIDE] ; value = 0

// field: EOSINOPHIL; key: CCN(CC)CCOCCC1=CCC2CC1C2(C)C (stereo not given) [MYRTECAINE] ; value = 0.67

// field: EOSINOPHIL; key: Oc1c(Cl)cc(Cl)c(Cl)c1Cc1c(O)c(Cl)cc(Cl)c1Cl [HEXACHLOROPHENE] ; value = 0

// field: EOSINOPHIL; key: CCC(=O)O[C@]1(C(=O)CCl)[C@@H](C)C[C@H]2[C@@H]3CCC4=CC(=O)C=C[C@]4(C)[C@@]3(F)[C@@H](O)C[C@@]21C [CLOBETASOL PROPIONATE] ; value = 1.33

====

Reported MONOCYTE values follow for various molecules
# Species: Rattus norvegicus
# assay_text: DrugMatrix - Regimen: Daily Repeat
# Format: toxicity, organism-based, Sprague-Dawley
# Design: regimen Daily Repeat, gender Male, age 6-8 weeks
# condition_set: in vivo, po, 0 mg/kg, 120 h, tissue Blood, route oral GAVAGE, dose level Control, time 5 day, vehicle .5 % CMC
Supply the numeric figure in %, leaving out any unit text.

| molecule | observed |
| --- | --- |
| Clc1ccccc1CN1CCc2sccc2C1 | 1.67 |
| CN(C)[C@@H]1C(O)=C(C(N)=O)C(=O)[C@@]2(O)C(O)=C3C(=O)c4c(O)ccc(Cl)c4[C@@](C)(O)[C@H]3C[C@@H]12 | 1.17 |
| CC(C(=O)O)c1ccc2oc(-c3ccc(Cl)cc3)nc2c1 (stereo not drawn) | 2.2 |

// field: MONOCYTE; key: NC1CCN(c2nc3c(cc2F)c(=O)c(C(=O)O)cn3-c2ccc(F)cc2F)C1 (stereo not drawn) ; value = 0.2

// field: MONOCYTE; key: CNCCC(Oc1ccc(C(F)(F)F)cc1)c1ccccc1 (stereo not drawn) ; value = 1.5

====

# Organism: Rattus norvegicus
# assay_text: DrugMatrix - Regimen: Daily Repeat
# Type: toxicity, organism-based, Sprague-Dawley
# Design: regimen Daily Repeat, gender Male, age 6-8 weeks
# condition_set: in vivo, po, 0 mg/kg, 72 h, tissue Blood, route oral GAVAGE, dose level Control, time 3 day, […]
readout_label: HEMOGLOBIN
A complete answer gives the number and then names the unit.

| molecule | observed |
| --- | --- |
| Clc1ccc(COC(Cn2ccnc2)c2ccc(Cl)cc2Cl)cc1 (centres undefined) | 13.43 G/DL |
| COc1cc(N)c(Cl)cc1C(=O)NC1CCN(CCCOc2ccc(F)cc2)CC1OC (centres undefined) [CISAPRIDE] | 13.23 G/DL |
| CC(C)(C)NC(=O)[C@H]1CC[C@H]2[C@@H]3CC[C@H]4NC(=O)C=C[C@]4(C)[C@H]3CC[C@]12C [FINASTERIDE] | 12.37 G/DL |

Turning now to a further molecule:
// field: HEMOGLOBIN; key: CO[C@H]1/C=C/O[C@@]2(C)Oc3c(C)c(O)c4c(O)c(c(/C=N/N5CCN(C6CCCC6)CC5)c(O)c4c3C2=O)NC(=O)/C(C)=C\C=C\[C@H](C)[C@H](O)[C@@H](C)[C@@H](O)[C@@H](C)[C@H](OC(C)=O)[C@@H]1C ; value = 12.88 G/DL

====

# Species: Rattus norvegicus
# assay_text: DrugMatrix - Regimen: Daily Repeat
# Format: toxicity, organism-based, Sprague-Dawley
# Set-up: regimen Daily Repeat, gender Male, age 6-8 weeks
# condition_set: in vivo, po, 2000 mg/kg, 72 h, tissue Plasma, route oral GAVAGE, dose level High, time 3 day, vehicle .5 % CMC
Threshold check on ALKALINE PHOSPHATASE: at or above 300 u/L gives Satisfied, strictly below gives Not satisfied.

Check out these entries, answers already filled in.
| compound | assigned_class |
| --- | --- |
| NC1CCN(c2nc3c(cc2F)c(=O)c(C(=O)O)cn3-c2ccc(F)cc2F)C1 (stereo unspecified) | Not satisfied |
| O=C1Nc2ccc(Cl)cc2C(c2ccccc2Cl)=NC1O (stereo unspecified) | Satisfied |
| CN(C/C=C/C#CC(C)(C)C)Cc1cccc2ccccc12 | Not satisfied |
| CN/C(=N/CCSCc1nc[nH]c1C)NC#N | Satisfied |

Consider the additional compound presented here.
(Q) Does the reported ALKALINE PHOSPHATASE for COc1cc2nc(N3CCN(C(=O)c4ccco4)CC3)nc(N)c2cc1OC fall at or above the 300 u/L mark?
(A) Not satisfied

Origin of values: ChEMBL document CHEMBL3885881
